- tgt: BRG-1 (Homo sapiens)
- Construct: made in house; host or cells: High Five insect cells
- Sequence (P51532 whole entry): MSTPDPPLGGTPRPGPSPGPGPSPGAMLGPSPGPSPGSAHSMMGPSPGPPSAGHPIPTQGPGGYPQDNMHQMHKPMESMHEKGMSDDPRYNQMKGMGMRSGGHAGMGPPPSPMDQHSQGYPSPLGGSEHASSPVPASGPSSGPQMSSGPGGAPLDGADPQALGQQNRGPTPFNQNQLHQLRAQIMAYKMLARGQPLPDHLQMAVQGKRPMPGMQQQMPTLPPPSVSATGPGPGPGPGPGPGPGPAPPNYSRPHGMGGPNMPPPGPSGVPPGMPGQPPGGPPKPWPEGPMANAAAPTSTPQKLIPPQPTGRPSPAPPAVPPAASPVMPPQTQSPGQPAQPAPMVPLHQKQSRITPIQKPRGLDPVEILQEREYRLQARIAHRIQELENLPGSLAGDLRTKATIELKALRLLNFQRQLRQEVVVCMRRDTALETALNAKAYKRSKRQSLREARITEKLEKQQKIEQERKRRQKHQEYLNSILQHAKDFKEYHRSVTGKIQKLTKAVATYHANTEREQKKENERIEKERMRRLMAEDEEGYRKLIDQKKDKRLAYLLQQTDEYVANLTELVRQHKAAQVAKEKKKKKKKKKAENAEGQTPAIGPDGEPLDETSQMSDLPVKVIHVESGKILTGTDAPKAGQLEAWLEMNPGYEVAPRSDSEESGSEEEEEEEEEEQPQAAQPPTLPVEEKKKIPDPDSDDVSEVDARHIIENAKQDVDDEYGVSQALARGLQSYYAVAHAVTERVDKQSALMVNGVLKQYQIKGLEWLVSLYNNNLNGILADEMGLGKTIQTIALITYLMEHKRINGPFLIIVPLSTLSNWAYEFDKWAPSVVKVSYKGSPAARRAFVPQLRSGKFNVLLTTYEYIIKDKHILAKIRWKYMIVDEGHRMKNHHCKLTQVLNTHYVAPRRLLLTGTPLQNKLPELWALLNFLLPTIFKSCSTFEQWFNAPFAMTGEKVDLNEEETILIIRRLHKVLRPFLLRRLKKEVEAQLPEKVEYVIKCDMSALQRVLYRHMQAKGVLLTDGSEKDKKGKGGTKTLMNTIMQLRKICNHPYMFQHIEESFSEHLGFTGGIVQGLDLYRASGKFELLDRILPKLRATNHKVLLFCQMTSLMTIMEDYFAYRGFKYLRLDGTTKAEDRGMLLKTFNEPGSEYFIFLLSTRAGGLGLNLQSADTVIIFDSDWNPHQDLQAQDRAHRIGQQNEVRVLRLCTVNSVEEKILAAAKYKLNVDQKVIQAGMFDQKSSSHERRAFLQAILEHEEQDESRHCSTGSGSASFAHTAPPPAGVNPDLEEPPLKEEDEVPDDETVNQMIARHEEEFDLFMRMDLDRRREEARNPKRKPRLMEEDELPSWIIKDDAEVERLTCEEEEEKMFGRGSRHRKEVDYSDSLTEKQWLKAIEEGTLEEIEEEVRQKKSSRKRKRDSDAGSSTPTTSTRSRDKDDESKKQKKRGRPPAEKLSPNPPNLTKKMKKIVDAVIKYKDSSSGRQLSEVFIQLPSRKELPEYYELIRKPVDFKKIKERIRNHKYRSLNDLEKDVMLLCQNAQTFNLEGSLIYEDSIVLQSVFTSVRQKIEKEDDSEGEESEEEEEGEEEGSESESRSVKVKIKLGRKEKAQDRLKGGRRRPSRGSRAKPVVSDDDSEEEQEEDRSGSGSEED
- assay.summary: ATPase catalytic activity of BRG-1, ADP-Glo in vitro biochemical assay
- condition.description: ATPase catalytic activity, 30 nM BRG-1, 400 μM ATP, read-out: BRG1 IP50 (μM)*
Measured IC50, listed per entry.

Below, 3 molecules whose answers are already recorded.
COCC1CCN(c2cccc(-c3csc(NC(=O)CNC(=O)c4ccn(S(C)(=O)=O)c4)n3)c2)CC1 = > 0.1 µM
CS(=O)(=O)n1ccc(C(=O)NCC(=O)Nc2nc(-c3cccc(N4CCCCC4)c3)cs2)c1 = > 0.01 µM
COCC(C)(C)n1ccc(C(=O)NCC(=O)Nc2nc(-c3cccc(-c4ccn(C)n4)c3)cs2)c1 = > 1 µM

Field request: IC50 | item: "COC[C@H](NC(=O)c1ccn(S(C)(=O)=O)c1)C(=O)Nc1nc(-c2cccc(-c3ccncn3)c2)cs1"
< 0.01 µM

Field request: IC50 | item: "CS(=O)(=O)n1ccc(C(=O)NCC(=O)Nc2nc(-c3cccc(OC(F)F)c3)cs2)c1"
> 0.01 µM

Field request: IC50 | item: "CS(=O)(=O)n1ccc(C(=O)NCC(=O)Nc2nc(-c3cccc(-c4cccc(CN)c4)c3)cs2)c1"
< 0.01 µM

Field request: IC50 | item: "CS(=O)(=O)n1ccc(C(=O)NCC(=O)Nc2nc(-c3cccc(N4CCC5(CC4)COC5)c3)cs2)c1"
> 0.01 µM

Field request: IC50 | item: "CC(C)(C)n1ccc(C(=O)NCC(=O)Nc2nc(-c3cccc(-c4ccnc(CN)c4)c3)cs2)c1"
> 0.01 µM

Field request: IC50 | item: "Cn1cncc1C(=O)NCC(=O)Nc1nc(-c2cccc(C#N)c2)cs1"
> 1 µM
